# Test system: Ca9-22;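 note: growth inhibition of Ca9-22 cells, read out with a cell viability assay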
# assay-text: cells
# Type: functional, cell-based
# condition-summary: Homo sapiens
# Description: SANGER: Inhibition of human Ca9-22 cell growth in a cell viability assay.
measured-endpoint: pIC50
// pIC50 here means minus log10 of the molar concentration (mol/L)

Sample answers from the record:
Cn1c(=O)n(-c2ccc(C(C)(C)C#N)cc2)c2c3cc(-c4cnc5ccccc5c4)ccc3ncc21 [DACTOLISIB] ... 7.47
CO[C@@]12[C@H](COC(N)=O)C3=C(C(=O)C(C)=C(N)C3=O)N1C[C@@H]1N[C@@H]12 [MITOMYCIN] ... 6.81

Query compound follows.
(Q) Need pIC50, item CC[C@]1(O)C[C@@H]2CN(CCc3c([nH]c4ccccc34)[C@@](C(=O)OC)(c3cc4c(cc3OC)N(C)[C@H]3[C@@](O)(C(=O)OC)[C@H](OC(C)=O)[C@]5(CC)C=CCN6CC[C@]43[C@@H]65)C2)C1 [VINBLASTINE]
(A) 8.19

====

IC50 listing for selected compounds.
# Tested on: HuP-T4;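 note: cell viability assay measuring how much HuP-T4 cell growth is inhibited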
# assay-text: cells
# Type: functional, cell-based
# condition-summary: Homo sapiens
# Description: SANGER: Inhibition of human HuP-T4 cell growth in a cell viability assay.
Dear colleague, please return just the value in nM, with no unit written.

Sample answers from the record:
CO[C@@]12[C@H](COC(N)=O)C3=C(C(=O)C(C)=C(N)C3=O)N1C[C@@H]1N[C@@H]12 ... 108
CC[C@@]1(O)C(=O)OCc2c1cc1n(c2=O)Cc2cc3ccccc3nc2-1 ... 0.881
Fc1cc(-c2cc[nH]/c(=N/c3ccc(-n4cnc(N5CCOCC5)n4)cc3)n2)cc(N2CCOCC2)c1 ... 3260

Query compound follows.
(Q) Need IC50, item Cn1c(=O)n(-c2ccc(C(C)(C)C#N)cc2)c2c3cc(-c4cnc5ccccc5c4)ccc3ncc21
(A) 127

====

# System: GI-ME-N
# assay-text: cells
# Assay type: functional, cell-based
# condition-summary: Homo sapiens
# Description: SANGER: Inhibition of human GI-ME-N cell growth in a cell viability assay.
pIC50 listing for selected molecules.
// pIC50 here means minus log10 of the molar concentration (mol/L)

Sample answers from the record:
CC[C@@]1(O)C(=O)OCc2c1cc1n(c2=O)Cc2cc3ccccc3nc2-1 ... 7.47
Cn1c(=O)n(-c2ccc(C(C)(C)C#N)cc2)c2c3cc(-c4cnc5ccccc5c4)ccc3ncc21 ... 7.52
Cc1n[nH]c2ccc(-c3cncc(OC[C@@H](N)Cc4c[nH]c5ccccc45)c3)cc12 ... 6.56
CC[C@]1(O)C[C@@H]2CN(CCc3c([nH]c4ccccc34)[C@@](C(=O)OC)(c3cc4c(cc3OC)N(C)[C@H]3[C@@](O)(C(=O)OC)[C@H](OC(C)=O)[C@]5(CC)C=CCN6CC[C@]43[C@@H]65)C2)C1 ... 8.22

Query molecule follows.
(Q) Requested read-out pIC50, target or system GI-ME-N, entry COc1cc(C)c(Sc2cnc(NC(=O)c3ccc(CNC(C)C(C)(C)C)cc3)s2)cc1C(=O)N1CCN(C(C)=O)CC1 (stereo unspecified)
(A) 5.37

====

# System: EW-12
# assay-text: SANGER: Inhibition of human EW-12 cell growth in a cell viability assay.
# Format: functional, cell-based
pIC50: −log10 of the molar value.
measured-endpoint: pIC50

Sample answers from the record:
COc1cc(C)c(Sc2cnc(NC(=O)c3ccc(CNC(C)C(C)(C)C)cc3)s2)cc1C(=O)N1CCN(C(C)=O)CC1 (stereo not drawn) ... < 4.99
CCNc1cc(N[C@H]2CC[C@@H](O)CC2)nc(Nc2ccc3c(ccn3Cc3ccccc3)c2)n1 ... < 5.29

Query molecule follows.
(Q) Requested read-out pIC50, target or system EW-12, entry Cc1[nH]c(/C=C2\C(=O)Nc3ccc(S(=O)(=O)Cc4c(Cl)cccc4Cl)cc32)c(C)c1C(=O)N1CCC[C@@H]1CN1CCCC1
(A) < 5.70
